Sourced from patent US11040981B2

Lab note: pIC50 readings collected with AXL (Homo sapiens) for the following molecules.
Sequence (P30530 26-894): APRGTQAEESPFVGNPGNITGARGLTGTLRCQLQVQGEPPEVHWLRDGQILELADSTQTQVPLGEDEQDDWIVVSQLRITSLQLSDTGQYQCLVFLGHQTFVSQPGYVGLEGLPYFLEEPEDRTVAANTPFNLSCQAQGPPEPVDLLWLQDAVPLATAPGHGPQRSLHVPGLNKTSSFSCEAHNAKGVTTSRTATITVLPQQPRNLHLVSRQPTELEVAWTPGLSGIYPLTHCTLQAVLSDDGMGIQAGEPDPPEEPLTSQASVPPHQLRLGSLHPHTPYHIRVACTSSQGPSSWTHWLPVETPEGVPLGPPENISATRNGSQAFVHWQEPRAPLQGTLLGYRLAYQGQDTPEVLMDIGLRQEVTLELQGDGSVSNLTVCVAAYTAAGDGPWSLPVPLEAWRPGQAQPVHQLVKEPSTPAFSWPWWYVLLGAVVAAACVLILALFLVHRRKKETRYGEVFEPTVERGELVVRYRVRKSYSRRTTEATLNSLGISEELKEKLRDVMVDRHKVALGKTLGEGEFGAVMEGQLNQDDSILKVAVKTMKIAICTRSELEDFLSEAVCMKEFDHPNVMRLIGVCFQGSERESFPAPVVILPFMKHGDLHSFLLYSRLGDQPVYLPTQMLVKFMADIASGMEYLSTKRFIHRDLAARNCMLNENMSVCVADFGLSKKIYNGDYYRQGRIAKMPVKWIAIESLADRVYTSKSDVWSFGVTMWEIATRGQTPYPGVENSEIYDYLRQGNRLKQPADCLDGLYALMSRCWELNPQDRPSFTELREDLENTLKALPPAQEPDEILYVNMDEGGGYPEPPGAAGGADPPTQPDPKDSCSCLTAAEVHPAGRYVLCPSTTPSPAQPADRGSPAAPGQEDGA
pIC50: −log10 of the molar value. Counter-ions that a name gives are not always drawn.

* CC(COc1ccccc1)Nc1ncc2c(-c3cnn(C4COC4)c3)cc([C@H]3CC[C@H](O)CC3)n2n1 (mixture of isomers) [Compound 528] | ≥ 7.00
* COC[C@H](C)Nc1ncc2c(N3CCCC3=O)cc([C@H]3CC[C@H](O)CC3)n2n1 [Compound 177] | 5.00 to 6.00
* COC[C@H](C)Nc1ncc2c(C3=CC4CCC(C3)N4)cc([C@H]3CC[C@H](O)CC3)n2n1 (stereo partly shown) [Compound 170] | ≥ 7.00
* COC[C@H](C)Nc1ncc2c(-c3ccnc(N4CCN(C5COC5)CC4)c3)cc([C@H]3CC[C@H](O)CC3)n2n1 [Compound 486] | ≥ 7.00
* CCC(=O)N1CCN(c2cc(-c3cc([C@H]4CC[C@H](O)CC4)n4nc(N[C@@H](C)COC)ncc34)ccn2)CC1 [Compound 432] | ≥ 7.00

Each molecule below has a recorded value; state its pIC50.
1. CCCCC[C@H](C)Nc1ncc2c(C(=O)Nc3ccc(F)cc3)cc(C3CCC(O)CC3)n2n1 (stereo partly shown) [Compound 111]
2. CCCCCC(C)Nc1ncc2c(Nc3ccc(F)cc3)cc(C3CCC(O)CC3)n2n1 (stereo not shown) [Compound 106, hydrochloride]

1. < 5.00
2. < 5.00

###

Hi there, I'd appreciate the recorded pIC50 for every entry that follows.
testedSystem: FLT3 (Homo sapiens, UniProt P36888)
Sequence (P36888 27-993): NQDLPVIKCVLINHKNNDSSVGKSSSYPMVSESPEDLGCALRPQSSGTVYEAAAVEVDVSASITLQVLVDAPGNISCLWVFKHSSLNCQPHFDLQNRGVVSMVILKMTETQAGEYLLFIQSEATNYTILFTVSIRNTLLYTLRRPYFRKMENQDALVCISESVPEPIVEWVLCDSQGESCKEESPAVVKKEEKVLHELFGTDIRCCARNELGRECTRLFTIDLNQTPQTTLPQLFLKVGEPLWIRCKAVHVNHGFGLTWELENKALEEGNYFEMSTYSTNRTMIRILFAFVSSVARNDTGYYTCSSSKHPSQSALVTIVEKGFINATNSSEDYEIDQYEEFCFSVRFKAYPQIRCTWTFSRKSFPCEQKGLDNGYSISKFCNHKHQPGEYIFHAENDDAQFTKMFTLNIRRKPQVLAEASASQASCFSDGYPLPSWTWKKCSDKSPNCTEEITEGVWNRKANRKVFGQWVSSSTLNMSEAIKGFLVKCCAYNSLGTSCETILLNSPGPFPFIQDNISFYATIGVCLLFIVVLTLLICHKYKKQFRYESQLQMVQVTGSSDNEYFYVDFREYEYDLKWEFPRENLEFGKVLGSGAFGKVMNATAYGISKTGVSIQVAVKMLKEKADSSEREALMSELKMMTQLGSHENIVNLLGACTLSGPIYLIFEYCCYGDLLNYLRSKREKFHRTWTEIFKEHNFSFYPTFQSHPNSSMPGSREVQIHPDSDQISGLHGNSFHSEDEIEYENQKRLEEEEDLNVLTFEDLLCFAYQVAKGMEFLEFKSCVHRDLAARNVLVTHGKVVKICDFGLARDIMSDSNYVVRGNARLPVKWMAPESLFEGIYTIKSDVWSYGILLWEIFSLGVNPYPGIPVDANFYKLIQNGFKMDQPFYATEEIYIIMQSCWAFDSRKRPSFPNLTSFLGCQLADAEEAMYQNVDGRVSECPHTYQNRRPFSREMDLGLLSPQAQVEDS
protocolDetails: TR-FRET kinase activity assay, FLT3
Assay type: biochemical
testParameters: ATP at Km, 60 minutes
pIC50: −log10 of the molar value.

* COC[C@H](C)Nc1ncc2c(-c3ccnc(N4CCOC(C(C)(C)O)C4)c3)cc([C@H]3CC[C@H](O)CC3)n2n1 (stereo partly shown) [Compound 534] | 6.00 to 7.00
* COC[C@H](C)Nc1ncc2c(-c3ccc(C(C)(C)C(=O)N4CCOCC4)s3)cc([C@H]3CC[C@H](O)CC3)n2n1 [Compound 460] | ≥ 7.00
* COC[C@H](C)Nc1ncc2c(-c3cnn(C4CCN(C)C4=O)c3)cc([C@H]3CC[C@H](O)CC3)n2n1 (stereo partly shown) [Compound 394] | 6.00 to 7.00
* COC[C@H](C)Nc1ncc2c(-c3cnn(C(C)(C)C(=O)N4CCCC4)c3)cc([C@H]3CC[C@H](O)CC3)n2n1 [Compound 612] | 6.00 to 7.00
* COC[C@H](C)Nc1ncc2c(-c3cnn(C4COC4)c3)cc(C3CCSCC3)n2n1 [Compound 522] | 6.00 to 7.00

Each compound below has a recorded value; state its pIC50.
1. CC[C@H](C)Nc1ncc2c(C3CCOCC3)cc([C@H]3CC[C@H](O)CC3)n2n1 [Compound 129]
2. COC[C@H](C)Nc1ncc2c(-c3cnn(C(C)(C)C(=O)N4C[C@@H](C)O[C@@H](C)C4)c3)cc([C@H]3CC[C@H](O)CC3)n2n1 [Compound 320]

1. 5.00 to 6.00
2. 5.00 to 6.00
